target: T1, human CD8αα homodimer, recombinant protein (Acro Biosystems) (human, UniProt P01732 22-182); assay: BLI kinetics, F(ab) on biotinylated CD8α (SA-XT sensor), 1:1 fit, 37 °C [CONT'ED]
T1 construct: also called CD8αα antigen; biotinylated CD8α recombinant protein (CDA-H82E3)
T1 sequence (P01732 22-182 limits assumed): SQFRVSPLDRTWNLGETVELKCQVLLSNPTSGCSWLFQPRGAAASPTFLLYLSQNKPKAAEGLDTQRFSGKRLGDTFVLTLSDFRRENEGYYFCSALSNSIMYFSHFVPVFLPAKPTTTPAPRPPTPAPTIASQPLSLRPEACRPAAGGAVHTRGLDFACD
EXPERIMENTAL_ENDPOINT: Kd (nM)
Use nM as the unit, but write only the number.

What measured Kd goes with CBD1038 (Fab, V domains shown, also called h1017-H4/L3 F(ab)) VH: QVQLVQSGAEVKKPGASVKVSCKASRYTFTDYNLHWVRQAPGQGLEWMGFIYPYNGGTGYAQKFQGRVTMTVDYSTSTAYMELSSLRSEDTAVYYCARDHRYNEGVSFDYWGQGTTVTVSS VL: DIQLTQSPSSLSASVGDRATITCRASESVDGFGNSFMNWYQQKPGKAPKLLIYLASNLESGVPSRFSGSGSRTDFTLTISSVQPEDFATYYCQQNNEDPYTFGQGTKLEIK ?
7.42

Reference source for all entries: patent US20250195685A1
